B1: E3 ubiquitin-protein ligase NEDD4-like, residues 539 to 589; numbered along this chain, Q96PU5 (parent)
chain: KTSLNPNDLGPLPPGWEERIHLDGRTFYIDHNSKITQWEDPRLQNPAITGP

# Variants of: B1
# Protocol Summary: abundance fitness (aPCA) (normalised: wild type 0, dead -1); higher = more abundant; growth selection in yeast, the domain comes from the species named
# Condition Summary: Homo sapiens

{"Mut": "E18I", "abundance fitness": -0.796}
{"Mut": "K1V", "abundance fitness": -0.885}
{"Mut": "L12S", "abundance fitness": -0.695}
{"Mut": "W38P", "abundance fitness": -0.223}
{"Mut": "L9V", "abundance fitness": -0.347}
{"Mut": "Q44K", "abundance fitness": 0.11}
{"Mut": "S3M", "abundance fitness": -0.193}
{"Mut": "K34I", "abundance fitness": -0.875}
{"Mut": "P14M", "abundance fitness": -0.256}
{"Mut": "T49F", "abundance fitness": -0.165}
{"Mut": "P11L", "abundance fitness": -0.41}
{"Mut": "P13I", "abundance fitness": -0.933}
{"Mut": "W16D", "abundance fitness": -0.353}
{"Mut": "G10K", "abundance fitness": -0.238}
{"Mut": "G10P", "abundance fitness": -0.347}
{"Mut": "Q44G", "abundance fitness": -0.022}
{"Mut": "T2P", "abundance fitness": -0.341}
{"Mut": "I20Y", "abundance fitness": -0.164}
{"Mut": "P51R", "abundance fitness": -0.345}
{"Mut": "T2F", "abundance fitness": 0.31}
{"Mut": "G10M", "abundance fitness": -0.485}
{"Mut": "D23T", "abundance fitness": -0.031}
{"Mut": "S33R", "abundance fitness": 0.056}
{"Mut": "R42C", "abundance fitness": -0.847}
{"Mut": "I29T", "abundance fitness": -0.166}
{"Mut": "P6D", "abundance fitness": 0.159}
{"Mut": "N32I", "abundance fitness": 0.074}
{"Mut": "P51C", "abundance fitness": -0.232}
{"Mut": "W16N", "abundance fitness": -0.222}
{"Mut": "E39S", "abundance fitness": -0.1}
{"Mut": "W16H", "abundance fitness": -0.386}
{"Mut": "G24F", "abundance fitness": -1.35}
{"Mut": "T2Y", "abundance fitness": -0.001}
{"Mut": "I35G", "abundance fitness": -0.301}
{"Mut": "Q37V", "abundance fitness": -0.397}
{"Mut": "G50C", "abundance fitness": -0.329}
{"Mut": "R19A", "abundance fitness": -0.283}
{"Mut": "T26N", "abundance fitness": -0.187}
{"Mut": "N45W", "abundance fitness": -0.331}
{"Mut": "E39H", "abundance fitness": -0.153}
{"Mut": "N32S", "abundance fitness": -0.086}
{"Mut": "I20E", "abundance fitness": 0.022}
{"Mut": "E18Q", "abundance fitness": 0}
{"Mut": "L22N", "abundance fitness": -0.247}
{"Mut": "N32K", "abundance fitness": -0.011}
{"Mut": "P13D", "abundance fitness": -0.322}
